- target: 5-HT3 receptor (Rattus norvegicus)
- Construct: 5-HT3 receptor in vivo in rats; from tissue; host or cells: whole anesthetized male Wistar rat (in vivo; endogenous receptor, no preparation isolated)
- Sequence (P35563 24-483): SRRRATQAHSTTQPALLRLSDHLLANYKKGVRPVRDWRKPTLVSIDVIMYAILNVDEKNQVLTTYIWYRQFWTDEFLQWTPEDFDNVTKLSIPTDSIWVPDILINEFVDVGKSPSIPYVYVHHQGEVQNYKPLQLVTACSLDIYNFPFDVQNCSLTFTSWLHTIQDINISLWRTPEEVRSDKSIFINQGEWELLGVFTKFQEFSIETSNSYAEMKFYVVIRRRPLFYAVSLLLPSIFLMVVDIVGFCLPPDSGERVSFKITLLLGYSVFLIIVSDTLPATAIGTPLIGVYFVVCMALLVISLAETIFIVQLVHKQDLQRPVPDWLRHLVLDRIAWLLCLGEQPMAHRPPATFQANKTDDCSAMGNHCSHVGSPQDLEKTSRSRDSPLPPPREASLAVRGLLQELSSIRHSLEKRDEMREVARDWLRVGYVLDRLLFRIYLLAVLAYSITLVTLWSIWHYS
- test.details: Antagonistic activity against 5-HT3 receptor in vivo in rats (suppression of 5-HT-induced reflex bradycardia)
- test.parameters: iv, urethane-anesthetized male Wister rat, 5-HT i.v. 2 mins after compound, read-out: IC50 i.v. (antagonistic activity against 5-HT3 receptor in vivo in rats)
Where a name gives a salt, the structure may show the parent alone.
log10 of ED50 reference
In plain terms, each number is the log10 of measured ED50 in µg/kg.

>  <compound>
Cc1[nH]cnc1Cn1ccc2c(C)cc3ccccc3c2c1=O [1(e), hydrochloride]

>  <val>
0.08

$$$$
>  <compound>
Cc1[nH]cnc1Cn1ccc2c(O)cc3ccccc3c2c1=O.Cl

>  <val>
-0.21

$$$$
>  <compound>
Cc1[nH]cnc1Cn1ccc2cc(Br)c3ccccc3c2c1=O.Cl

>  <val>
0.77

$$$$
>  <compound>
Cc1[nH]cnc1Cn1ccc2cc(C)c3ccccc3c2c1=O.Cl

>  <val>
-0.05

$$$$
>  <compound>
COc1cc2ccccc2c2c(=O)n(Cc3nc[nH]c3C)ccc12.Cl

>  <val>
0.38

$$$$

Attention now turns to another entry.
Task: What log10 of ED50 value was documented for this compound, Cc1[nH]cnc1Cn1ccc2ccc3ccccc3c2c1=O.Cl ?
Result: -0.54
